Biological target: T1, human Factor XIIa-beta (human, UniProt P00748 354-615, limits assumed)
T1 construct: Bought from Enzyme Research Laboratories; also called FXIIa beta; FXIIa-beta
T1 sequence: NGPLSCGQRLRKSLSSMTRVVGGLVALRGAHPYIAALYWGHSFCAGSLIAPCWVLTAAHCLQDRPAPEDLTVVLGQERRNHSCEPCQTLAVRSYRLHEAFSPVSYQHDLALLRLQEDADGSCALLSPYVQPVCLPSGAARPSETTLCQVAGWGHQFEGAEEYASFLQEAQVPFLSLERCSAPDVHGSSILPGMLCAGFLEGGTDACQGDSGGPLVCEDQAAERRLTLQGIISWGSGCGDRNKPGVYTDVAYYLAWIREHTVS
Experiment: SPR (Biacore A100), unpurified IgG4 supernatant captured on anti-human IgG, single FXIIa beta concentration (100 nM), 37 C, 1:1 fit; estimated
pKd: −log10 of the molar value.
Would you please tag the item TRUE when its pKd is 8 or above, and FALSE when it is below?

{"binder": "VR24 (antibody, V domains shown) VH: EVQLLESGGGLVQPGGSLRLSCAASGFTFSKYIMQWVRQAPGKGLEWVSGIRPSGGTTVYADSVKGRFTISRDNSKNTLYLQMNSLRAEDTAVYYCARALPRSGYLISPHYYYYALDVWGQGTTVTVSS VL: QSVLTQPPSASGTPGQRVTISCSGSSEMTVHHYVYWYQQLPGTAPKLLIYSNNQRPSGVPDRFSGSKSGTSASLAISGLRSEDEADYYCAAWDASLRGVFGGGTKLTVLG", "category": "TRUE"}
{"binder": "VR101 (antibody, V domains shown, Libraries were built on germline stop templates, so frameworks may differ) VH: EVQLLESGGGLVQPGGSLRLSCAASGFTFSKYIMQWVRQAPGKGLEWVSGINPATRSTVYADSVKGRFTISRDNSKNTLYLQMNSLRAEDTAVYYCARALPRSGYLISPHYYYYALDVWGQGTTVTVSS VL: QSELTQPPSASGTPGQRVTISCSGSSSNIGRNYVYWYQQVPGTAPKLLIYSNNQRPSGVPDRFSGSKSGTSASLVISGLRSEDEADYYCAAWDASLRGVFGGGTKLTVLG", "category": "TRUE"}
{"binder": "VR149 (antibody, V domains shown, Libraries were built on germline stop templates, so frameworks may differ) VH: EVQLLESGGGLVQPGGSLRLSCAASGFTFSKYIMQWVRQAPGKGLEWVSGIRPSGGTTVYADSVKGRFTISRDNSKNTLYLQMNSLRAEDTAVYYCARALPRSGYLMKKNYYYYALDVWGQGTTVTVSS VL: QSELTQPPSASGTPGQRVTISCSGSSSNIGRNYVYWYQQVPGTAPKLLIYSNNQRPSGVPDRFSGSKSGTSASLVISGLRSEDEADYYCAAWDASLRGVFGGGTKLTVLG", "category": "TRUE"}
{"binder": "monoclonal antibody 3F7 (fully human IgG4/lambda) (antibody, V domains shown, also called 3F7 mAb; MAb 3F7) VH: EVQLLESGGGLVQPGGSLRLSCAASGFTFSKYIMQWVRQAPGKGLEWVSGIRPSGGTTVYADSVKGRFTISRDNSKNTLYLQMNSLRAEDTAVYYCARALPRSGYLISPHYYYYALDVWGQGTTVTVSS VL: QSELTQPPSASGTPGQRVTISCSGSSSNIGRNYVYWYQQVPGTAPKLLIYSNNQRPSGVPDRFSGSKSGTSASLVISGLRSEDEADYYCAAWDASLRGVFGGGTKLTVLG", "category": "FALSE"}
